# credit: ChEMBL document CHEMBL1961873

- MEASUREMENT TARGET: Serine/threonine-protein kinase pim-3 (Homo sapiens);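 further: mean inhibition of PIM3 kinase activity, recorded in the GSK_PKIS screening set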
- TEST CONDITIONS: at 0.1 µM
inhibition by entry:
Kindly provide the numeric value in % only, without the unit symbol.

COc1ccc(-c2oc3ncnc(N)c3c2-c2ccc(NC(=O)Nc3cc(C(F)(F)F)ccc3F)cc2)cc1 : 0.37
CS(=O)(=O)CCNCc1coc(-c2ccc3ncnc(Nc4ccc(OCc5ccccc5)cc4)c3c2)c1 : 1.2

The recorded inhibition for `Nc1nc(-c2ccc(F)cc2)c(-c2ccc3ncccc3n2)s1` is 0.41

The recorded inhibition for `CCn1c(-c2nonc2N)nc2c(C#CC(C)(C)O)ncc(OC3CCNCC3)c21` is 2.64

The recorded inhibition for `O=S(=O)(CCNCc1ccc(-c2ccc3ncnc(Nc4ccc(OCc5cccc(F)c5)c(Cl)c4)c3c2)o1)c1ccccc1` is -0.16

The recorded inhibition for `COc1cc(N2CCN(C(C)C)CC2)ccc1Nc1nc(Nc2ccc(F)cc2C(N)=O)c2cc[nH]c2n1` is 1.69

The recorded inhibition for `CCn1cc(-c2ccnc3[nH]ccc23)c(-c2cccc(NC(=O)Nc3ccc(OCc4ccccc4)cc3)c2)n1` is -0.81

The recorded inhibition for `CNC(=O)c1cncc(/C=C/c2ccccc2Cl)c1` is 3.4

---

- MEASUREMENT TARGET: High affinity nerve growth factor receptor (Homo sapiens) (UniProt P04629);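 further: each value is a mean of replicate percent inhibition readings against TRKA kinase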
- Sequence (P04629 33-796 limits assumed): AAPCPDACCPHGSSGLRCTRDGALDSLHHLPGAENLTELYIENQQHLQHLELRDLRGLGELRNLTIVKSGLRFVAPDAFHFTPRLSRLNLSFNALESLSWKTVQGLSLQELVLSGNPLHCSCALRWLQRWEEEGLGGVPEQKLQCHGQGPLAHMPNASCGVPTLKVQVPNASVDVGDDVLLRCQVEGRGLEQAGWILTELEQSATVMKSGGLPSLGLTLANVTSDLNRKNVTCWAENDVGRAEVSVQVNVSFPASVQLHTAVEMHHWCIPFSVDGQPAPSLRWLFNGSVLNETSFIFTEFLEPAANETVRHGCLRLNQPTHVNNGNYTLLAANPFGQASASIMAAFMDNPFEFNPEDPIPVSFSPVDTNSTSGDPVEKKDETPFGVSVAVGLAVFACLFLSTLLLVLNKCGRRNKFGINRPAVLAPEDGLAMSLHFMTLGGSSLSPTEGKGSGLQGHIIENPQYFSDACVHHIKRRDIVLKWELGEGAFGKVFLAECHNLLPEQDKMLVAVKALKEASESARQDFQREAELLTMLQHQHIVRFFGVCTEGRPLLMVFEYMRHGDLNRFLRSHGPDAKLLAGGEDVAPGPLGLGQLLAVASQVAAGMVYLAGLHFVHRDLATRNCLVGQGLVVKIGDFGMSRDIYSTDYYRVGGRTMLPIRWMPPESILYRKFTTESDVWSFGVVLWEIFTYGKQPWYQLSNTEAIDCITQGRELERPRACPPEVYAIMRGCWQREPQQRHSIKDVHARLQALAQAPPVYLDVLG
- TEST CONDITIONS: at 0.1 µM
MEASUREMENT TYPE: inhibition (%)
Kindly provide the numeric value in % only, without the unit symbol.

See these solved cases before continuing.
COc1ccc(CNC(=O)c2ccc(-c3cc(-c4nnc(C)o4)ccc3C)cc2)cc1 : -2.81
CCN(CC)S(=O)(=O)c1ccc(OC)c(Nc2ncc(-c3ccccc3)o2)c1 : 4.25
COc1ccc(-c2nn3ncccc3c2-c2ccnc(Nc3ccc4c(c3)OCCO4)n2)cc1 : 0.04
Cc1ccc2c(-c3ccnc(Nc4ccccc4)n3)c(-c3ccc(F)cc3)nn2n1 : 9
CCn1c(-c2nonc2N)nc2ccccc21 : 3.39

The recorded inhibition for `CC(C)(CO)CNC(=O)c1ccc2c(c1)/C(=N/Nc1ccc(S(N)(=O)=O)cc1)C(=O)N2` is 1.4

The recorded inhibition for `N#Cc1c(NC(=O)CN2CCOCC2)sc2c1CCCC2` is 3.46

The recorded inhibition for `CCCN1CCC(c2ccc(Nc3nc(Nc4cc(F)ccc4C(N)=O)c4cc[nH]c4n3)c(OC)c2)CC1` is 1.74

The recorded inhibition for `Nc1ncc(-c2cccc(S(N)(=O)=O)c2)c2scc(-c3ccc(F)c(Cl)c3)c12` is 1.33

The recorded inhibition for `[O-][S+]1CCN(Cc2ccc(-c3ccc4ncnc(Nc5ccc(OCc6cccc(F)c6)c(Cl)c5)c4c3)o2)CC1` is 3.52

The recorded inhibition for `CCN1CCC(CC(=O)Nc2n[nH]c3nnc(-c4cccc(F)c4F)cc23)CC1` is -1.1

---

- MEASUREMENT TARGET: Glycogen synthase kinase-3 alpha (Homo sapiens) (UniProt P49840);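 further: values are mean inhibition of GSK3A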
- Sequence (P49840 2-483 limits assumed): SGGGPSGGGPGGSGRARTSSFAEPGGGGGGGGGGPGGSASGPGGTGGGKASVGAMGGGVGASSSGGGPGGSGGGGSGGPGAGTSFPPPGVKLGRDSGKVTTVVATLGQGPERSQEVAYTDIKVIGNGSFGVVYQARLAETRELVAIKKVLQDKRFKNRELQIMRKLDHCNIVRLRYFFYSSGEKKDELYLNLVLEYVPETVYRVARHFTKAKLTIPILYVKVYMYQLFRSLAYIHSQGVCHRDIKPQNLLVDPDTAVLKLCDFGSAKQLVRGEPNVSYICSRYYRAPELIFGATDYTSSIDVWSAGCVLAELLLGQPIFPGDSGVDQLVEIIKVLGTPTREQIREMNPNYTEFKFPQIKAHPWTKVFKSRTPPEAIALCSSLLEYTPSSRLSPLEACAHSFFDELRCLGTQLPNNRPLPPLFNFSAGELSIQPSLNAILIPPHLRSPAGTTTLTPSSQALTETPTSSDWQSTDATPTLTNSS
- TEST CONDITIONS: at 0.1 µM
MEASUREMENT TYPE: inhibition (%)
Kindly provide the numeric value in % only, without the unit symbol.

See these solved cases before continuing.
CC(C)(CO)CNC(=O)c1ccc2c(c1)/C(=N/Nc1ccc(S(N)(=O)=O)cc1)C(=O)N2 : 23.2
CCOc1ccc2c(-c3ccnc(Nc4cccc(C(F)(F)F)c4)n3)cnn2n1 : 12.1
COc1ccc2c(-c3ccnc(Nc4cccc(OC(F)(F)F)c4)n3)cnn2n1 : 28.1

The recorded inhibition for `O=C(O[C@H]1CN[C@H](C#Cc2cc3ncnc(Nc4ccc(Cc5ccccc5)cc4)c3s2)C1)N1CCOCC1` is 2.45

The recorded inhibition for `Fc1ccc(-c2nn3ncccc3c2-c2ccnc(Nc3ccc4c(c3)OCCO4)n2)cc1` is 19.6

The recorded inhibition for `CC(=O)Nc1cccc(C#Cc2cncnc2Nc2ccc(OCc3cccc(F)c3)c(Cl)c2)c1` is 2.72

The recorded inhibition for `CCNC(=O)O[C@H]1CN[C@H](C#Cc2cc3ncnc(Nc4ccc(OCc5cccc(F)c5)c(Cl)c4)c3s2)C1` is 3.4

---

inhibition by entry:
- MEASUREMENT TARGET: MAP kinase-interacting serine/threonine-protein kinase 1 (Homo sapiens) (UniProt Q9BUB5)
- Sequence (Q9BUB5 whole entry, looked up): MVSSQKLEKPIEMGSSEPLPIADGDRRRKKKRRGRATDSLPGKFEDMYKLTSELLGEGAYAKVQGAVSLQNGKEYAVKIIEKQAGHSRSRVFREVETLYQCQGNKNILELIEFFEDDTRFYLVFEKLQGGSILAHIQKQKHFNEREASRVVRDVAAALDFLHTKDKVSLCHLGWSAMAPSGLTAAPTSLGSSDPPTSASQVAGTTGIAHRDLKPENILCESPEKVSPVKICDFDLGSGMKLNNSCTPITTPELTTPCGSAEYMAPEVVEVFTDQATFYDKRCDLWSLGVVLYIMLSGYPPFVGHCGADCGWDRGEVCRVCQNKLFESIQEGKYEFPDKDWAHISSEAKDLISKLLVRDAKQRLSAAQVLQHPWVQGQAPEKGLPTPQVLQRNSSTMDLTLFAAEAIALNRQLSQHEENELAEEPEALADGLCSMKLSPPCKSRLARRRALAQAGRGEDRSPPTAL
- TEST CONDITIONS: at 0.1 µM
- Description: GSK_PKIS: MKNK1 mean inhibition at 0.1 uM [Nanosyn]
Kindly provide the numeric value in % only, without the unit symbol.

See these solved cases before continuing.
CN(C)CCOc1ccc(-c2nc(-c3ccncc3)c(-c3ccc4c(c3)CC/C4=N\O)[nH]2)cc1 : 1.3
CCn1c(-c2nonc2N)nc2c(C#CC(C)(C)O)ncc(OC3CCNCC3)c21 : 1.74
CCN1CCC(CC(=O)Nc2n[nH]c3nnc(-c4cccc(F)c4F)cc23)CC1 : 1.66

The recorded inhibition for `FC(F)(F)c1cccc(-c2nn3ncccc3c2-c2ccnc(Nc3ccc4c(c3)OCCO4)n2)c1` is 1.74

The recorded inhibition for `Fc1cccc(COc2ccc(Nc3ncnc4sc(-c5ccco5)cc34)cc2Cl)c1` is 1.99

The recorded inhibition for `c1cc(-c2cnn3nc(N4CCOCC4)ccc23)nc(NC2CC2)n1` is 4.33

---

inhibition by entry:
- MEASUREMENT TARGET: Vascular endothelial growth factor receptor 3 (Homo sapiens);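 further: mean FLT4 inhibition, averaged across replicates, from the GSK PKIS kinase inhibitor screen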
- TEST CONDITIONS: at 1 µM
Kindly provide the numeric value in % only, without the unit symbol.

FC(F)(F)c1cccc(-c2nn3ncccc3c2-c2ccnc(Nc3ccc4c(c3)OCCO4)n2)c1 : 18.5
[O-][S+]1CCN(Cc2ccc(-c3ccc4ncnc(Nc5ccc(OCc6cccc(F)c6)c(Cl)c5)c4c3)o2)CC1 : 7.72

Case `CN1CCC(n2cnc(-c3ccc(F)cc3)c2-c2ccnc(N)n2)CC1` , Vascular endothelial growth factor receptor 3 (Homo sapiens), inhibition recorded as 2.31

Case `CCN(CC)S(=O)(=O)c1ccc(OC)c(Nc2ncc(-c3ccccc3)o2)c1` , Vascular endothelial growth factor receptor 3 (Homo sapiens), inhibition recorded as 85.5

Case `CS(=O)(=O)CCNCc1ccc(-c2ccc3ncnc(Nc4ccc(OCc5ccccc5)c(C(F)(F)F)c4)c3c2)o1` , Vascular endothelial growth factor receptor 3 (Homo sapiens), inhibition recorded as 1.31

Case `CCOc1ccc2c(-c3ccnc(Nc4cccc(C(F)(F)F)c4)n3)cnn2n1` , Vascular endothelial growth factor receptor 3 (Homo sapiens), inhibition recorded as 3.46

Case `Nc1ncc(-c2cccc(S(N)(=O)=O)c2)c2scc(-c3ccc(F)c(Cl)c3)c12` , Vascular endothelial growth factor receptor 3 (Homo sapiens), inhibition recorded as 12.6

Case `COc1cc2c(cc1Nc1nc(Nc3ccsc3C(N)=O)c3cc[nH]c3n1)N(C(=O)CN(C)C)CCC2(C)C` , Vascular endothelial growth factor receptor 3 (Homo sapiens), inhibition recorded as 5.12

Case `Clc1ccc(-c2nn3ncccc3c2-c2ccnc(Nc3ccccc3)n2)cc1` , Vascular endothelial growth factor receptor 3 (Homo sapiens), inhibition recorded as 16.2

---

- MEASUREMENT TARGET: Ephrin type-A receptor 2 (Homo sapiens) (UniProt P29317);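 further: value is the mean inhibition of EPHA2, measured in the GSK PKIS screen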
- Sequence (P29317 whole entry): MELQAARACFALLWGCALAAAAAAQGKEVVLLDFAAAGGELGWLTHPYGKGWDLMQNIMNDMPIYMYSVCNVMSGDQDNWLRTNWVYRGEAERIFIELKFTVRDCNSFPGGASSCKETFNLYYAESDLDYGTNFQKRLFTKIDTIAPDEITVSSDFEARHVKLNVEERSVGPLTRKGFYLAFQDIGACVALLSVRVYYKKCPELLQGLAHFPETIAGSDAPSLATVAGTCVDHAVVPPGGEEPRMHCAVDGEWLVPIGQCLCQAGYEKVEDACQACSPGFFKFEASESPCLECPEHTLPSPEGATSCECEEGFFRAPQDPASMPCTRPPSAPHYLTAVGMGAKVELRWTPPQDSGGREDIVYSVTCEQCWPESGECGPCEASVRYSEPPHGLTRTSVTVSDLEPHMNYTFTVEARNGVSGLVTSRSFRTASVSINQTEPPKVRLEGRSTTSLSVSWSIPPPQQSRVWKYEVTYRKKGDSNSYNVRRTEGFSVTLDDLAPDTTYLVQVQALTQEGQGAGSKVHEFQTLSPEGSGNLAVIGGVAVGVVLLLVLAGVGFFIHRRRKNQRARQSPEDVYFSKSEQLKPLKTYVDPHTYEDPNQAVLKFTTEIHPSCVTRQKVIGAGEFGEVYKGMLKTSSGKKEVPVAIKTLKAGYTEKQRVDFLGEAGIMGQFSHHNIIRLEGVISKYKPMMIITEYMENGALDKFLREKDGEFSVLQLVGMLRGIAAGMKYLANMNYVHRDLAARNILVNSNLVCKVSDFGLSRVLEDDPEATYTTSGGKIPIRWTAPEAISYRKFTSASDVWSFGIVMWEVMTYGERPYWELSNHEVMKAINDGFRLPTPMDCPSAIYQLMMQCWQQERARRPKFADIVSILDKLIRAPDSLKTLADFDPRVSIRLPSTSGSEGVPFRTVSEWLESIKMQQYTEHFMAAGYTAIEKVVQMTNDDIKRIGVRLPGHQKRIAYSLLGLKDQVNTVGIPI
- TEST CONDITIONS: at 1 µM
MEASUREMENT TYPE: inhibition
Answer format: number, then unit.

See these solved cases before continuing.
O=C(O[C@H]1CN[C@H](C#Cc2cc3ncnc(Nc4ccc(Cc5ccccc5)cc4)c3s2)C1)N1CCOCC1 : -1.09%
CC(=O)Nc1cccc(C#Cc2cncnc2Nc2ccc(OCc3cccc(F)c3)c(Cl)c2)c1 : 2.42%
CS(=O)(=O)CCNCc1coc(-c2ccc3ncnc(Nc4ccc(OCc5ccccc5)cc4)c3c2)c1 : 0.15%
COc1ccc(-c2oc3ncnc(N)c3c2-c2ccc(NC(=O)Nc3cc(C(F)(F)F)ccc3F)cc2)cc1 : 95.7%
c1ccc(-c2nc3n(c2-c2ccc4c(c2)OCO4)CCC3)nc1 : -2.85%
CN(C)CCOc1ccc(-c2nc(-c3ccncc3)c(-c3ccc4c(c3)CC/C4=N\O)[nH]2)cc1 : 0.74%
c1cc(-c2cnn3nc(N4CCOCC4)ccc23)nc(NC2CC2)n1 : 0.18%
COc1ccc2[nH]c3c4[nH]c5ccc(OC)cc5c4c4c(c3c2c1)C(=O)NC4=O : 0.85%

Alright, here's another compound for you.
The recorded inhibition for `Cc1ccc(O)cc1Nc1ccnc2cc(-c3ccccn3)ccc12` is 80.2%

---

inhibition by entry:
- MEASUREMENT TARGET: Serine/threonine-protein kinase Nek6 (Homo sapiens) (UniProt Q9HC98);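 further: values are the mean percent inhibition of NEK6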
- Sequence (Q9HC98 whole entry): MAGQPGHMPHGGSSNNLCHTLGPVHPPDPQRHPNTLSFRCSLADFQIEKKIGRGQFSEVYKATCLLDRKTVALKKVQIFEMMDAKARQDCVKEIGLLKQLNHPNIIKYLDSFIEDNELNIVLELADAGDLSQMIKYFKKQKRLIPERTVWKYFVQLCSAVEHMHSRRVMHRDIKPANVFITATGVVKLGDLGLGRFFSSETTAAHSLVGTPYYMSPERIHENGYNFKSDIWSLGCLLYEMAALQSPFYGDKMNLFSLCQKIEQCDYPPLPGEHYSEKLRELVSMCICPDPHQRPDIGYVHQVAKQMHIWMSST
- TEST CONDITIONS: at 0.1 µM
Kindly provide the numeric value in % only, without the unit symbol.

See these solved cases before continuing.
Cc1cccc2c1NC(=O)/C2=N\Nc1ccc(S(N)(=O)=O)cc1 : 2.04
CN1CCC(n2cnc(-c3ccc(F)cc3)c2-c2ccnc(Nc3ccccc3)n2)CC1 : 4.42
CC(C)(CO)CNC(=O)c1ccc2c(c1)/C(=N/Nc1ccc(S(N)(=O)=O)cc1)C(=O)N2 : 1.63
CCN1CCC(CC(=O)Nc2n[nH]c3nnc(-c4cccc(F)c4F)cc23)CC1 : 2.04

The recorded inhibition for `Cc1ccc(O)cc1Nc1ccnc2cc(-c3ccccn3)ccc12` is 5.8

The recorded inhibition for `CC(C)COC(=O)c1ccc2c(c1)/C(=C/Nc1ccc(S(N)(=O)=O)cc1)C(=O)N2` is -0.45
